Measured % inhibition of EGFR phosphorylation at 100 nM binder, cell-based assay, listed per entry for reference.
# tested system: EGFR on the surface of human tumour cells (A431, H292) (human, UniProt P00533 25-1210)
# protocol text: cell-based or functional assay
measurement name: % inhibition of EGFR phosphorylation at 100 nM binder, cell-based assay

• E18 (designed binder) 10Fn3 domain: MGVSDVPRDLEVVAATPTSLLISWFVTHVAYQYYRITYGETGGNSPVQEFTVPGGLSTATISGLKPGVDYTITVYAVTDYKPHADGPHTYHESPISINYRTEIDKPSQ = 91.1%
• E26 (designed binder) 10Fn3 domain: MGVSDVPRDLEVVAATPTSLLISWWIGIPVYQYYRITYGETGGNSPVQEFTVPYDGKTATISGLKPGVDYTITVYAVTDMMHVEYAEYPISINYRTEIDKPSQ = 75.4%
• E27 (designed binder) 10Fn3 domain: MGVSDVPRDLEVVAATPTSLLISWSKGSKSYQYYRITYGETGGNSPVQEFTVPYHVYTATISGLKPGVDYTITVYAVTDYYNPATYEYIYLTTPISINYRTEIDKPSQ = 94.6%
• E24 (designed binder) 10Fn3 domain: MGVSDVPRDLEVVAATPTSLLISWQVPRPMYQYYRITYGETGGNSPVQEFTVPGQVPTATISGLKPGVDYTITVYAVTDSYNPATHEYKYHQTPISINYRTEIDKPSQ = 90.3%
• E30 (designed binder) 10Fn3 domain: MGVSDVPRDLEVVAATPTSLLISWAIGTIVYQYYRITYGETGGNSPVQEFTVPAGVYTATISGLKPGVDYTITVYAVTDYYDWATHEYNYHTAPISINYRTEIDKPSQ = 87.3%

Reference source for all entries: patent US20180037631A1
